- System: Human papillomavirus type 1a E7 protein (residues 1-88)
- method summary: HPV1a E7 small-molecule binders, primary screen, biochemical, small-molecule microarray, residues 1-88, 635 nm (AID 1129)
- condition description: small-molecule microarray binding, fluorescence 635 nm; higher = more signal
assay readout: composite z-score
Answer with the value's number alone.

INSERT INTO assay_data (compound, val) VALUES
  ('CC(C)CNC(=O)[C@@]1(Cc2ccccc2I)c2ccccc2C(=O)N(C2CCCCC2)[C@H]1c1ccc(CO)cc1', 1),
  ('CCOC(=O)C[C@H]1[C@H](OC(=O)c2cc3ccccc3oc2=O)[C@@H](NC(=O)c2ccccc2)c2cc(OCCCO)ccc2N1C(=O)c1ccc2ccccc2n1', 0.625),
  ('C[N+](C)(C)CCCCNC(=O)[C@H]1C[C@H]2C(=O)N3CCC[C@H]3C(=O)N2[C@H]1c1cccc(OCCO)c1', -1.41),
  ('CCS[C@H]1[C@@H](C(=O)O)[C@H](c2ccc(C)cc2)N(S(=O)(=O)c2ccc(C)cc2)[C@@H]1CC', 1.24),
  ('O=C1C2C=CC(C(O)c3cc(C(F)(F)F)cc(C(F)(F)F)c3)N(n3cnnc3)C2C(=O)N1Cc1ccccc1 (stereo not given)', -0.269),
  ('COc1ccc([Si](C)(C)[C@@H]2[C@@H](CCO)O[C@]3(C(=O)N(Cc4ccc(N(C=O)c5ccccc5)cc4)c4ccccc43)[C@H]2C)cc1', 0.34),
  ('COCCCNC(=O)[C@@H]1c2ccccc2C(=O)N(Cc2ccccc2Cl)[C@H]1c1ccc(CO)cc1', 1.17),
  ('COC(=O)[C@@]1(Cc2ccc(OC)cc2)[C@H]2c3cc(C(=O)N(C)C)n(Cc4ccccn4)c3C[C@H]2CN1C(=O)c1ccccc1', 0.451);

*Q* // Input: CC[C@@H]1C=C(C(=O)O)[C@H](c2ccc(Br)cc2)N1S(=O)(=O)c1ccc(C)cc1 . Output its composite z-score only.
*A* 1.04

*Q* Respond only with composite z-score recorded for CC(C)=CCCC(C)=CC(O)C1C=CC2C(=O)N(C)C(=O)C2N1Nc1ccccc1 (stereo not given)
*A* 1.21

----------
- method summary: small-molecule microarray binders of probe aEGFR, primary screen, biochemical, biotinylated probe, 635/667 nm fluorescence (AID 1097);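 also: probe is a biotinylated anti-EGFR antibody binding compounds printed on slides; score combines fluorescence near 667 nm and signal to noise of each spot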
- condition description: higher = more signal
The threshold is inclusive: composite z-score of exactly -0.1 counts as label 1; values below receive label 0.

Worked examples, 5 compounds total:
INSERT INTO assay_data (compound, classification) VALUES
  ('COC(=O)[C@@]1(Cc2ccc(OC)cc2)[C@@H]2C(=CC(=O)[C@H]2CC(=O)C(=O)N2CCCC2)CN1C(=O)c1ccccc1', 'label 1'),
  ('CC(C)C(=C=CC[C@@H](O)c1ccc(OCCO)cc1)C[C@@H](O)c1ccccn1', 'label 0'),
  ('NC(=O)N1C(=O)C2C(C1=O)C1C=C(c3ccc(CO)cc3)C2C(c2cccs2)N1Cc1cccc(OC(F)(F)F)c1 (configuration not stated)', 'label 1'),
  ('COCCOC(=O)N1C(=O)[C@@]2(c3cc(C#Cc4ccc(OC)cc4)ccc31)[C@H](c1ccc(O)cc1)N1[C@H](c3ccccc3)[C@H](c3ccccc3)OC(=O)[C@H]1[C@@H]2C(=O)N1CCc2cc(OC)c(OC)cc2C1', 'label 0'),
  ('COc1ccccc1CN1C(=O)c2ccccc2[C@@]2(Cc3ccccc3N(CC(C)C)C2=O)[C@@H]1c1ccc(CO)cc1', 'label 0');

# evaluate next
*Q* # check: composite z-score of COc1ccc(C(=O)Nc2ccc(CN3C(=O)[C@]4(O[C@H](CCO)[C@@H]([Si](C)(C)c5ccc(OC)cc5)[C@@H]4C)c4ccccc43)cc2)cc1 is greater than or equal to -0.1
*A* label 0

Provenance of the data: PubChem BioAssay
